Target: Sterol O-acyltransferase 2 (Mus musculus)
Assay: Potency index, ratio of PRD-043 IC50 to test compound IC50 for inhibition ACAT2 in mouse hepatic microsome membranes using [1-14C]oleoyl coenzyme A as substrate incubated for 5 mins
Assay type: microsomes
EXPERIMENTAL_ENDPOINT: Ratio IC50

1) COc1ccc(CNC(=O)[C@]2(C)[C@@H](OC(C)=O)CC[C@]3(C)[C@H]4[C@@H](O)c5c(cc(-c6cccnc6)oc5=O)O[C@]4(C)[C@@H](OC(=O)c4ccc(C#N)cc4)C[C@H]32)c(OC)c1: < 20

Field request: Ratio IC50 | item: "C[C@@]12CO[C@@H](c3cccc4ccccc34)O[C@H]1CC[C@@]1(C)[C@H]2C[C@H](OC(=O)c2ccc(C#N)cc2)[C@@]2(C)Oc3cc(-c4cccnc4)oc(=O)c3[C@H](O)[C@H]12"
10 to 20

Field request: Ratio IC50 | item: "CC(=O)O[C@H]1C[C@H]2[C@]3(C)CO[C@@H](c4ccccc4)O[C@H]3CC[C@]2(C)[C@H]2[C@@H](O)c3c(cc(-c4cccnc4)oc3=O)O[C@]12C"
10 to 20

Field request: Ratio IC50 | item: "COC(=O)[C@]1(C)[C@@H](OC(C)=O)CC[C@]2(C)[C@H]3[C@@H](O)c4c(cc(-c5cccnc5)oc4=O)O[C@]3(C)[C@@H](OC(=O)c3ccc(C#N)cc3)C[C@H]21"
10 to 20

Field request: Ratio IC50 | item: "Cc1ccccc1[C@@H]1OC[C@@]2(C)[C@@H]3C[C@H](OC(=O)c4ccc(F)cc4)[C@@]4(C)Oc5cc(-c6cccnc6)oc(=O)c5[C@H](O)[C@@H]4[C@@]3(C)CC[C@@H]2O1"
10 to 20

---

Assay: Half life in Sprague-Dawley rat hepatic microsomes at 6 ug/ml by LC-MS method
Format: ADME, Microsome
Conditions: liver microsomes
// values below are reported half-life at 6 ug/ml

1. CC(=O)O[C@H]1CC[C@@]2(C)[C@@H](C[C@H](OC(=O)c3ccc(C#N)cc3)[C@@]3(C)Oc4cc(-c5cccnc5)oc(=O)c4[C@H](O)[C@H]23)[C@]1(C)COC(=O)C(C)C: > 9 h

Field request: half-life at 6 ug/ml | item: "Cc1cccc([C@@H]2OC[C@@]3(C)[C@@H]4C[C@H](OC(=O)c5ccc(F)cc5)[C@@]5(C)Oc6cc(-c7cccnc7)oc(=O)c6[C@H](O)[C@@H]5[C@@]4(C)CC[C@@H]3O2)c1"
> 9 h

Field request: half-life at 6 ug/ml | item: "CC(=O)OC[C@@]1(C)[C@@H]2C[C@H](OC(=O)c3cccc(Br)c3)[C@@]3(C)Oc4cc(-c5cccnc5)oc(=O)c4[C@H](O)[C@@H]3[C@@]2(C)CC[C@@H]1OC(C)=O"
< 1 h

Field request: half-life at 6 ug/ml | item: "CC(=O)OC[C@@]1(C)[C@@H]2C[C@H](OC(=O)c3ccccc3C)[C@@]3(C)Oc4cc(-c5cccnc5)oc(=O)c4[C@H](O)[C@@H]3[C@@]2(C)CC[C@@H]1OC(C)=O"
< 1 h

Field request: half-life at 6 ug/ml | item: "CC(=O)O[C@H]1CC[C@@]2(C)[C@@H](C[C@H](OC(=O)c3ccc(C#N)cc3)[C@@]3(C)Oc4cc(-c5cccnc5)oc(=O)c4[C@H](O)[C@H]23)[C@]1(C)COC(=O)c1ccccc1"
> 9 h

Field request: half-life at 6 ug/ml | item: "CC(=O)OC[C@@]1(C)[C@@H]2C[C@H](OC(=O)c3ccccc3F)[C@@]3(C)Oc4cc(-c5cccnc5)oc(=O)c4[C@H](O)[C@@H]3[C@@]2(C)CC[C@@H]1OC(C)=O"
< 1 h

---

Assay: Half life in Sprague-Dawley rat hepatic microsomes at 6 ug/ml by LC-MS method
Format: ADME, Microsome
Conditions: liver microsomes
// values below are reported half-life at 6 ug/ml

1) CCc1ccc(C(=O)O[C@H]2C[C@H]3[C@](C)(COC(C)=O)[C@@H](OC(C)=O)CC[C@]3(C)[C@H]3[C@@H](O)c4c(cc(-c5cccnc5)oc4=O)O[C@]23C)cc1: < 1 h
2) CC(C)C(=O)OC[C@@]1(C)[C@@H]2C[C@H](OC(=O)C3CCCCC3)[C@@]3(C)Oc4cc(-c5cccnc5)oc(=O)c4[C@H](O)[C@@H]3[C@@]2(C)CC[C@@H]1OC(=O)C(C)C: > 9 h
3) CC(C)C(=O)OC[C@@]1(C)[C@@H]2C[C@H](OC(=O)c3ccc(C#N)cc3)[C@@]3(C)Oc4cc(-c5cccnc5)oc(=O)c4[C@H](O)[C@@H]3[C@@]2(C)CC[C@@H]1OC(=O)C(C)C: > 9 h
4) Cc1cccc(C)c1[C@@H]1OC[C@@]2(C)[C@@H]3C[C@H](OC(=O)c4ccc(C#N)cc4)[C@@]4(C)Oc5cc(-c6cccnc6)oc(=O)c5[C@H](O)[C@@H]4[C@@]3(C)CC[C@@H]2O1: > 9 h

Field request: half-life at 6 ug/ml | item: "C[C@@]12CO[C@@H](c3ccccc3F)O[C@H]1CC[C@@]1(C)[C@H]2C[C@H](OC(=O)c2ccc(F)cc2)[C@@]2(C)Oc3cc(-c4cccnc4)oc(=O)c3[C@H](O)[C@H]12"
> 9 h

Field request: half-life at 6 ug/ml | item: "COc1ccc(CNC(=O)[C@]2(C)[C@@H](OC(C)=O)CC[C@]3(C)[C@H]4[C@@H](O)c5c(cc(-c6cccnc6)oc5=O)O[C@]4(C)[C@@H](OC(=O)c4ccc(C#N)cc4)C[C@H]32)c(OC)c1"
> 9 h

Field request: half-life at 6 ug/ml | item: "CC(=O)OC[C@@]1(C)[C@@H]2C[C@H](OC(=O)c3ccc(C#N)cc3)[C@@]3(C)Oc4cc(-c5cccnc5)oc(=O)c4[C@H](O)[C@@H]3[C@@]2(C)CC[C@@H]1OC(=O)C(C)C"
> 9 h

Field request: half-life at 6 ug/ml | item: "COC(=O)[C@]1(C)[C@@H](OC(C)=O)CC[C@]2(C)[C@H]3[C@@H](O)c4c(cc(-c5cccnc5)oc4=O)O[C@]3(C)[C@@H](OC(=O)c3ccc(C#N)cc3)C[C@H]21"
> 9 h

Field request: half-life at 6 ug/ml | item: "C[C@@]12CO[C@@H](c3ccccc3)O[C@H]1CC[C@@]1(C)[C@H]2C[C@H](OC(=O)C2CCCCC2)[C@@]2(C)Oc3cc(-c4cccnc4)oc(=O)c3[C@H](O)[C@H]12"
> 9 h

Field request: half-life at 6 ug/ml | item: "CC(=O)OC[C@@]1(C)[C@@H]2C[C@H](OC(=O)C3CCCCC3)[C@@]3(C)Oc4cc(-c5cccnc5)oc(=O)c4[C@H](O)[C@@H]3[C@@]2(C)CC[C@@H]1OC(C)=O"
< 1 h

---

Target: Sterol O-acyltransferase 2 (Mus musculus) (UniProt O88908)
Sequence (O88908 whole entry): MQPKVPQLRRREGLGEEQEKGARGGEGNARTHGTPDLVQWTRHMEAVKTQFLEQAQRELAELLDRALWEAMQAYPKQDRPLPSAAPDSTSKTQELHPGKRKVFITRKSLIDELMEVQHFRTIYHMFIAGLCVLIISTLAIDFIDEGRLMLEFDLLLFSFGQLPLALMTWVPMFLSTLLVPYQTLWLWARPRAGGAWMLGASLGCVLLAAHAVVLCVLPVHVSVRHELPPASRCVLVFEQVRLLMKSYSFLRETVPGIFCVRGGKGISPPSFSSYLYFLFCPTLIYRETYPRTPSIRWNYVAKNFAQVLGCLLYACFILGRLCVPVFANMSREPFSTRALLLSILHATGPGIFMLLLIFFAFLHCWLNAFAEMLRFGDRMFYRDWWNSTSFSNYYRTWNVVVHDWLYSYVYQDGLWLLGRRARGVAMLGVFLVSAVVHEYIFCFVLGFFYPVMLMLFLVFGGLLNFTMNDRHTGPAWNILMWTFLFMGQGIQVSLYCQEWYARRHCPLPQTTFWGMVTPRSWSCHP
Assay: Potency index, ratio of PRD-043 IC50 to test compound IC50 for inhibition ACAT2 in mouse hepatic microsome membranes using [1-14C]oleoyl coenzyme A as substrate incubated for 5 mins
Format: microsomes
// values below are reported Ratio IC50

Consider the following illustrative entries.
1. Cc1ccc([C@@H]2OC[C@@]3(C)[C@@H]4C[C@H](OC(=O)c5ccc(F)cc5)[C@@]5(C)Oc6cc(-c7cccnc7)oc(=O)c6[C@H](O)[C@@H]5[C@@]4(C)CC[C@@H]3O2)c(C)c1: 10 to 20
2. CC(C)C(=O)OC[C@@]1(C)[C@@H]2C[C@H](OC(=O)c3ccc(C#N)cc3)[C@@]3(C)Oc4cc(-c5cccnc5)oc(=O)c4[C@H](O)[C@@H]3[C@@]2(C)CC[C@@H]1OC(=O)C(C)C: 0.1 to 1
3. Cc1ccc([C@@H]2OC[C@@]3(C)[C@@H]4C[C@H](OC(=O)c5ccc(C#N)cc5)[C@@]5(C)Oc6cc(-c7cccnc7)oc(=O)c6[C@H](O)[C@@H]5[C@@]4(C)CC[C@@H]3O2)cc1: 10 to 20

Field request: Ratio IC50 | item: "Cc1ccc([C@@H]2OC[C@@]3(C)[C@@H]4C[C@H](OC(=O)c5ccc(C#N)cc5)[C@@]5(C)Oc6cc(-c7cccnc7)oc(=O)c6[C@H](O)[C@@H]5[C@@]4(C)CC[C@@H]3O2)c(C)c1"
10 to 20

Field request: Ratio IC50 | item: "C[C@@]12CO[C@@H](c3ccccc3F)O[C@H]1CC[C@@]1(C)[C@H]2C[C@H](OC(=O)c2ccc(C#N)cc2)[C@@]2(C)Oc3cc(-c4cccnc4)oc(=O)c3[C@H](O)[C@H]12"
10 to 20

Field request: Ratio IC50 | item: "Cc1cccc(C)c1[C@@H]1OC[C@@]2(C)[C@@H]3C[C@H](OC(=O)c4ccc(C#N)cc4)[C@@]4(C)Oc5cc(-c6cccnc6)oc(=O)c5[C@H](O)[C@@H]4[C@@]3(C)CC[C@@H]2O1"
10 to 20

Field request: Ratio IC50 | item: "Cc1ccc([C@@H]2OC[C@@]3(C)[C@@H]4C[C@H](OC(=O)c5ccc(F)cc5)[C@@]5(C)Oc6cc(-c7cccnc7)oc(=O)c6[C@H](O)[C@@H]5[C@@]4(C)CC[C@@H]3O2)cc1"
< 20

Field request: Ratio IC50 | item: "Cc1cccc([C@@H]2OC[C@@]3(C)[C@@H]4C[C@H](OC(=O)c5ccc(C#N)cc5)[C@@]5(C)Oc6cc(-c7cccnc7)oc(=O)c6[C@H](O)[C@@H]5[C@@]4(C)CC[C@@H]3O2)c1"
< 20

Field request: Ratio IC50 | item: "CC(=O)OC[C@@]1(C)[C@@H]2C[C@H](OC(=O)c3ccc(C#N)cc3)[C@@]3(C)Oc4cc(-c5cccnc5)oc(=O)c4[C@H](O)[C@@H]3[C@@]2(C)CC[C@@H]1OC(=O)C(C)C"
< 20

Field request: Ratio IC50 | item: "C[C@@]12CO[C@@H](c3ccccc3)O[C@H]1CC[C@@]1(C)[C@H]2C[C@H](OC(=O)C2CCCCC2)[C@@]2(C)Oc3cc(-c4cccnc4)oc(=O)c3[C@H](O)[C@H]12"
10 to 20
